Tested on: Saccharomyces cerevisiae
measurement-protocol: protein stability index of tFT-peptide fusion (C-terminal peptide) (PSI (0-1 scale)); higher = more stable (slower turnover)
assay-conditions: genetic background: cdc53-1; temperature: 37 C
In this section we review reported protein stability index values for a set of sequences.
measurement-kind: protein stability index

INSERT INTO results (record_sequence, system_tested, result) VALUES
  ('RVSECVSVVGWM', 'Saccharomyces cerevisiae', 0.723),
  ('ALEIIRLSHRLC', 'Saccharomyces cerevisiae', 0.689),
  ('GYLVFTLRWLRG', 'Saccharomyces cerevisiae', 0.491),
  ('FILLTLVFGCAS', 'Saccharomyces cerevisiae', 0.313),
  ('QLIDVGLLNCAA', 'Saccharomyces cerevisiae', 0.557),
  ('VCIPLLVIRFLV', 'Saccharomyces cerevisiae', 0.182),
  ('LSLFCFFLLVLF', 'Saccharomyces cerevisiae', 0.224),
  ('YLLTAFLSAFNP', 'Saccharomyces cerevisiae', 0.683),
  ('GLVSCWIDPSMA', 'Saccharomyces cerevisiae', 0.77),
  ('RFIYYCVDVFFS', 'Saccharomyces cerevisiae', 0.147),
  ('RVITRMLLMVIR', 'Saccharomyces cerevisiae', 0.365),
  ('GLSLLLLWFKVC', 'Saccharomyces cerevisiae', 0.36),
  ('TRSLLFANRCIV', 'Saccharomyces cerevisiae', 0.706),
  ('GCLVVVGFFSVF', 'Saccharomyces cerevisiae', 0.416),
  ('RPPPYSPRLFHN', 'Saccharomyces cerevisiae', 0.706),
  ('VVVLLLVVWFCL', 'Saccharomyces cerevisiae', 0.413),
  ('CVLSWSLFVVVW', 'Saccharomyces cerevisiae', 0.028),
  ('RVPCCLSFVPVC', 'Saccharomyces cerevisiae', 0.513),
  ('GALWVLGVVVGG', 'Saccharomyces cerevisiae', 0.505);

* * *

Documented protein stability index across a set of sequences
Test system: Saccharomyces cerevisiae
measurement-protocol: protein stability index of tFT-peptide fusion in deletion strain of DAS1 (PSI (0-1 scale)); higher = more stable (slower turnover)
measurement-kind: protein stability index

INSERT INTO measurements (record_sequence, measurement_kind, numeric_result) VALUES
  ('RLIQPLPVQYLN', 'protein stability index', 0.661),
  ('PSLAASFWLVVG', 'protein stability index', 0.611),
  ('FSMRWTRRYWVN', 'protein stability index', 0.585),
  ('RLIQPLGVQFLN', 'protein stability index', 0.66),
  ('LVVYLSCTACIN', 'protein stability index', 0.0401),
  ('AGWRVGLWRGAS', 'protein stability index', 0.722),
  ('VRGAVGGWRLPG', 'protein stability index', 0.681),
  ('KKHKKGQKQSIN', 'protein stability index', 0.577),
  ('VRGAVGGHRLVG', 'protein stability index', 0.703),
  ('PDLRNHLIKLLN', 'protein stability index', 0.614),
  ('LVVYLSCVFCIN', 'protein stability index', 0.167),
  ('CSLAASFWRVVG', 'protein stability index', 0.69),
  ('RLIQPLPVSFLN', 'protein stability index', 0.593),
  ('DKHKKGQKQKIN', 'protein stability index', 0.602),
  ('KKHKKGQKQKMN', 'protein stability index', 0.533),
  ('CTSLGYKFRTNN', 'protein stability index', 0.689),
  ('CTSCGYKFRTNN', 'protein stability index', 0.691),
  ('ARGAVGGWRLVG', 'protein stability index', 0.653),
  ('FSMRWTFRYWNN', 'protein stability index', 0.549),
  ('RLYQPLPVQFLN', 'protein stability index', 0.586),
  ('PSLAATFWRVVG', 'protein stability index', 0.674),
  ('ARWRVCLWRGAS', 'protein stability index', 0.705),
  ('LKILRQKMNHKN', 'protein stability index', 0.678),
  ('LKILRQKMNHLN', 'protein stability index', 0.674),
  ('LVVYLSCVACNN', 'protein stability index', 0.16),
  ('ARWRIGLWRGAS', 'protein stability index', 0.671),
  ('CTSCGYKFRTEN', 'protein stability index', 0.725),
  ('FSMRWTFRYWVNP', 'protein stability index', 0.544),
  ('ARWRVGLWFGAS', 'protein stability index', 0.666),
  ('KKHKKTQKQKIN', 'protein stability index', 0.677),
  ('CTSCGYKLRTNN', 'protein stability index', 0.678),
  ('FSMRSTFRYWVN', 'protein stability index', 0.608),
  ('ARWRVGLWRGAI', 'protein stability index', 0.685),
  ('VRWRVGLWRGAS', 'protein stability index', 0.648),
  ('LWVYLSCVACIN', 'protein stability index', 0.0209),
  ('PSRAASFWRVVG', 'protein stability index', 0.691),
  ('FSMRWTNRYWVN', 'protein stability index', 0.592),
  ('PDKRNHLIALLN', 'protein stability index', 0.634),
  ('ARWRVGLWRGASH', 'protein stability index', 0.685),
  ('ARWIVGLWRGAS', 'protein stability index', 0.684),
  ('VRGAVGGWRLVR', 'protein stability index', 0.682),
  ('LVVYLSCVACMN', 'protein stability index', 0.0497),
  ('LVAYLSCVACIN', 'protein stability index', 0.156),
  ('PTLAASFWRVVG', 'protein stability index', 0.703),
  ('KQHKKGQKQKIN', 'protein stability index', 0.621),
  ('FSMRWTFRYWVR', 'protein stability index', 0.446),
  ('VRGAVGWWRLVG', 'protein stability index', 0.665),
  ('CTSRGYKFRTNN', 'protein stability index', 0.685),
  ('CTSCGYAFRTNN', 'protein stability index', 0.697),
  ('PDKRNHLIMLLN', 'protein stability index', 0.624),
  ('RLIQPLPVQVLN', 'protein stability index', 0.46),
  ('FSMRWTFDYWVN', 'protein stability index', 0.577),
  ('CTSCGYKFRTND', 'protein stability index', 0.695),
  ('ACWRVGLWRGAS', 'protein stability index', 0.694),
  ('ARWVVGLWRGAS', 'protein stability index', 0.694),
  ('ARWRVGLWRFAS', 'protein stability index', 0.675),
  ('PSLAASFERVVG', 'protein stability index', 0.675),
  ('VRGAVGYWRLVG', 'protein stability index', 0.668),
  ('VRGAVGGWRLYG', 'protein stability index', 0.686),
  ('VRGACGGWRLVG', 'protein stability index', 0.677),
  ('LKILRQKMNHQG', 'protein stability index', 0.656),
  ('FSMRWTFREWVN', 'protein stability index', 0.57),
  ('PSLAASFIRVVG', 'protein stability index', 0.435),
  ('PDKKNHLIKLLN', 'protein stability index', 0.768),
  ('LKPLRQKMNHQN', 'protein stability index', 0.682),
  ('RLQQPLPVQFLN', 'protein stability index', 0.574),
  ('LVVYLSCVDCIN', 'protein stability index', 0.417),
  ('LVVYLSCVACINM', 'protein stability index', 0.206),
  ('PSLDASFWRVVG', 'protein stability index', 0.677),
  ('LVVYLSCVACCN', 'protein stability index', 0.0342),
  ('KKSKKGQKQKIN', 'protein stability index', 0.576),
  ('VRGAVYGWRLVG', 'protein stability index', 0.666),
  ('LKILRQKMQHQN', 'protein stability index', 0.716),
  ('FSKRWTFRYWVN', 'protein stability index', 0.596),
  ('PSLAASFWRVVGT', 'protein stability index', 0.698),
  ('RLIQPSPVQFLN', 'protein stability index', 0.683),
  ('CTSCGYKFRTTN', 'protein stability index', 0.699),
  ('PDKRNVLIKLLN', 'protein stability index', 0.589),
  ('FSMEWTFRYWVN', 'protein stability index', 0.425),
  ('ARWRVGLKRGAS', 'protein stability index', 0.663),
  ('FSMRWCFRYWVN', 'protein stability index', 0.554);

* * *

Test system: Saccharomyces cerevisiae
measurement-protocol: protein stability index of tFT-peptide fusion (C-terminal peptide) (PSI (0-1 scale)); higher = more stable (slower turnover)
assay-conditions: genetic background: wild type; temperature: 30 C
I would appreciate it if you labelled entries true when protein stability index is 0.5 or higher, otherwise false.

INSERT INTO results (record_sequence, class_label) VALUES
  ('VCIPLLVIRFLV', 'false'),
  ('PPTSHHHYHRQQ', 'true'),
  ('PPPPTQPPARPP', 'true'),
  ('SPPLNSFPPTPP', 'true'),
  ('SPSSFLLSPPIP', 'true'),
  ('GAFFPGPVLFLT', 'true'),
  ('RIVLRPPFNSVA', 'false'),
  ('NYVFRIIIVLDA', 'false'),
  ('PPPPPASPPSAP', 'true'),
  ('VLRRCGRERGIF', 'true');
